Please provide measured MIC for the entries that follow.
System: Pentatrichomonas hominis
experimentDescription: Antibacterial activity against Pentatrichomonas hominis ATCC 30000 after 48 hrs by ten-fold serial dilution method
Format: functional
conditionContext: ATCC 30000, 48 h

**Q:** Short answer please: MIC, Pentatrichomonas hominis, entry Cn1c([N+](=O)[O-])cnc1[S+]([O-])CCCCC(=O)O (stereo unspecified)
**A:** 100 µg/mL

**Q:** Record: "Cn1c([N+](=O)[O-])cnc1SCCCOc1ccc(C(=O)O)cc1"
**A:** 1 µg/mL

**Q:** Further, for "Cn1c([N+](=O)[O-])cnc1SCCCCCCOc1ccc(C(=O)O)cc1" ?
**A:** 1 µg/mL

**Q:** Item: "Cn1c([N+](=O)[O-])cnc1SCCC(=O)O"
**A:** 10 µg/mL

**Q:** Next up: "Cn1c([N+](=O)[O-])cnc1SCCCCCCCCCC(=O)O"
**A:** 1 µg/mL

**Q:** Repeat for the following compound: "Cn1c([N+](=O)[O-])cnc1SCCOc1ccc(Br)cc1"
**A:** 10 µg/mL

**Q:** Follow-up entry: "Br.Cn1ccnc1SCCCCCCCCCCC(=O)O"
**A:** > 100 µg/mL

**Q:** Another compound to check: "Cn1c([N+](=O)[O-])cnc1SCCOc1ccc(C(=O)[O-])cc1.[Na+]"
**A:** 1 µg/mL

**Q:** Do the same for "Cn1c([N+](=O)[O-])cnc1S(=O)(=O)CCCCCCCOc1ccccc1[N+](=O)[O-]" please
**A:** > 100 µg/mL

**Q:** Ok, now "Br.Cn1ccnc1SCCOc1ccc([N+](=O)[O-])cc1"
**A:** > 100 µg/mL

**Q:** // next record Cn1c([N+](=O)[O-])cnc1[S+]([O-])CCC(=O)O (stereo unspecified)
**A:** 10 µg/mL

**Q:** Further, for Cn1c([N+](=O)[O-])cnc1[S+]([O-])CCOc1ccc(C#N)cc1 (stereo unspecified) ?
**A:** 100 µg/mL

**Q:** Again, but for "Cn1ccnc1SCCOc1ccc(C#N)cc1"
**A:** > 100 µg/mL

**Q:** Another compound to look at: "Cn1c([N+](=O)[O-])cnc1SCCCCCCC(=O)O"
**A:** 1 µg/mL

**Q:** Same question for "CCOC(=O)c1ccc(OCCCCCCCCCCSc2ncc([N+](=O)[O-])n2C)c([N+](=O)[O-])c1" please.
**A:** 10 µg/mL

**Q:** Same read-out for COC(=O)CCCCCCCCCC[S+]([O-])c1ncc([N+](=O)[O-])n1C (stereo unspecified) ?
**A:** 100 µg/mL
